test.system: human recombinant A2A adenosine receptors (Homo sapiens, UniProt P29274)
Sequence (P29274 whole entry): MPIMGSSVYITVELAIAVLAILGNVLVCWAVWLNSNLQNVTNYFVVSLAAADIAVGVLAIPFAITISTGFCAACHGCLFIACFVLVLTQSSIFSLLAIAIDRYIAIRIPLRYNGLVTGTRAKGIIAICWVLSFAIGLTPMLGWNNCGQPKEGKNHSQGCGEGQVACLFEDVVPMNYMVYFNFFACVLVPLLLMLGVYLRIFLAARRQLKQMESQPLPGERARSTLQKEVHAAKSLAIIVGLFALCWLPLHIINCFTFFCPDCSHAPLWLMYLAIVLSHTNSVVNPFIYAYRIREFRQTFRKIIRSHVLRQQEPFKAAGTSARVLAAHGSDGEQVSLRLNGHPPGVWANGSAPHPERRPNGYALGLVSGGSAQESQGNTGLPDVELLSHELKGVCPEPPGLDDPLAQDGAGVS
experimental.details: Radioligand binding to hA2A receptors expressed in CHO cells
The compounds listed here are annotated with their Ki.

[
  {
    "smiles.representation": "CC(C)Cn1c(=O)c2c(nc3[nH]c(-c4ccccc4)cn32)n(CC(C)C)c1=O",
    "Ki": "> 1 µM"
  }
]

Need Ki, item CCCn1c(=O)c2c(nc3n2CC(c2ccccc2)=NN3C)n(Cc2ccccc2)c1=O
> 1 µM

Please answer likewise for CCCn1c(=O)c2c(nc3n2CC(c2ccccc2)=NN3CCO)n(Cc2ccccc2)c1=O
> 1 µM

Next up: CCCn1c(=O)c2c(nc3n2CC(C)=C3)n(Cc2ccccc2)c1=O
> 5 µM

And what about the compound Cc1cn2c(nc3c2c(=O)n(C)c(=O)n3C)[nH]1 ?
> 1 µM

What do we get for CCCn1c(=O)c2c(nc3[nH]c(-c4ccccc4)cn32)n(CCC)c1=O ?
> 1 µM
